test: in vivo; settings: CD1 nude, mouse, 0.5 nmol/mouse, total radioactivity, Liver uptake
Endpoint: tissue uptake at 24 h (%ID/g)

* Cc1ccc(CCCC(=O)NCCOCCOCCOCCOCCC(=O)NCCCC[C@H](NC(=O)CC[C@H](C(=O)O)N2CCN(CC(=O)O)CCN(CC(=O)O)CCN(CC(=O)O)CC2)C(=O)N[C@@H](CC(=O)O)C(=O)N[C@@H](CC2CCCCC2)C(=O)N[C@@H](Cc2ccccc2)C(=O)N[C@H](CO)C(=O)N[C@H](CCCNC(=N)N)C(=O)N[C@@H](Cc2ccc(O)cc2)C(=O)N[C@@H](CC(C)C)C(=O)N[C@@H](Cc2c[nH]c3ccccc23)C(=O)N[C@@H](CO)C(N)=O)cc1 [[^177Lu]Lu-uPAR-17, metal not drawn] | 0.21
* Cc1ccc(CCCC(=O)NCCOCCOCCOCCC(=O)NCCCC[C@H](NC(=O)CN2CCN(CC(=O)O)CCN(CC(=O)O)CCN(CC(=O)O)CC2)C(=O)N[C@@H](CC(=O)O)C(=O)N[C@@H](CC2CCCCC2)C(=O)N[C@@H](Cc2ccccc2)C(=O)N[C@H](CO)C(=O)N[C@H](CCCNC(=N)N)C(=O)N[C@@H](Cc2ccc(O)cc2)C(=O)N[C@@H](CC(C)C)C(=O)N[C@@H](Cc2c[nH]c3ccccc23)C(=O)N[C@@H](CO)C(N)=O)cc1 [[^177Lu]Lu-uPAR-15, metal not drawn] | 0.5
